Hey, just so you know, these numbers are from patent US11230556B2.

# study-system: human M4 muscarinic acetylcholine receptor (Homo sapiens, UniProt P08173)
# Sequence (P08173 whole entry): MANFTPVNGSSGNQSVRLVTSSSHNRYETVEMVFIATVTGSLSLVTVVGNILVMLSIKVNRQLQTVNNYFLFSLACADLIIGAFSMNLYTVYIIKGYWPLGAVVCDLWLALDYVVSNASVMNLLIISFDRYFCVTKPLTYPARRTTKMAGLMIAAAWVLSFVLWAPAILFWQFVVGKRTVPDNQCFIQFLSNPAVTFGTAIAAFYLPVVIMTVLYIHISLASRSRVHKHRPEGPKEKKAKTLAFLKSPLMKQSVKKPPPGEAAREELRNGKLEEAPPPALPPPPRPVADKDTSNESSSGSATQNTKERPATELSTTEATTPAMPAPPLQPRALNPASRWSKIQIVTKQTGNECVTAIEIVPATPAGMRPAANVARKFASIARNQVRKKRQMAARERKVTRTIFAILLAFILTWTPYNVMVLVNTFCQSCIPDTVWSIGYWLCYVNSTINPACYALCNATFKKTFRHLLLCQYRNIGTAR
# test-summary: human FLIPR-based M4 PAM assay (CHO-K1 cells with human M4 receptor and Gαqi5, calcium dye fluorescence, acetylcholine at 20% of maximum response)
# measurement-conditions: inflection point (IP) of 4 parameter logistic dose response curve, human M4 receptor + Gαqi5, FLIPR Tetra
observable: pEC50
Worth noting: pEC50 values are minus log10 of concentrations stated in mol/L.

Any idea what pEC50 was measured for Cc1cc2c(nc1N1CCC(Oc3ccc4c(c3)COC4)CC1)C1COCCN1C2=O (single isomer, unassigned) [Example 81B] ?
6.79

Item under review: Cc1cc2c(nc1N1CCC(Oc3ccccc3)CC1)CN(C(=O)C1CC1)C2 . Reported pEC50?
6.95

What pEC50 value was documented for this compound, COc1ccc(OC2CCN(c3nc4c(cc3C)CN(C(=O)CCO)C4)CC2)cn1 ?
7.11

// returns reported pEC50 for input COc1ccc(OC2CCN(c3nc4c(cc3C)C(=O)C(F)(F)C4)CC2)cn1
7.20
